# testedSystem: full-length beta-Catenin (Uniprot ID P35222) (Homo sapiens, UniProt P35222)
# Construct: 10 nM full-length beta-Catenin (Uniprot ID P35222)
# Sequence (P35222 1-781): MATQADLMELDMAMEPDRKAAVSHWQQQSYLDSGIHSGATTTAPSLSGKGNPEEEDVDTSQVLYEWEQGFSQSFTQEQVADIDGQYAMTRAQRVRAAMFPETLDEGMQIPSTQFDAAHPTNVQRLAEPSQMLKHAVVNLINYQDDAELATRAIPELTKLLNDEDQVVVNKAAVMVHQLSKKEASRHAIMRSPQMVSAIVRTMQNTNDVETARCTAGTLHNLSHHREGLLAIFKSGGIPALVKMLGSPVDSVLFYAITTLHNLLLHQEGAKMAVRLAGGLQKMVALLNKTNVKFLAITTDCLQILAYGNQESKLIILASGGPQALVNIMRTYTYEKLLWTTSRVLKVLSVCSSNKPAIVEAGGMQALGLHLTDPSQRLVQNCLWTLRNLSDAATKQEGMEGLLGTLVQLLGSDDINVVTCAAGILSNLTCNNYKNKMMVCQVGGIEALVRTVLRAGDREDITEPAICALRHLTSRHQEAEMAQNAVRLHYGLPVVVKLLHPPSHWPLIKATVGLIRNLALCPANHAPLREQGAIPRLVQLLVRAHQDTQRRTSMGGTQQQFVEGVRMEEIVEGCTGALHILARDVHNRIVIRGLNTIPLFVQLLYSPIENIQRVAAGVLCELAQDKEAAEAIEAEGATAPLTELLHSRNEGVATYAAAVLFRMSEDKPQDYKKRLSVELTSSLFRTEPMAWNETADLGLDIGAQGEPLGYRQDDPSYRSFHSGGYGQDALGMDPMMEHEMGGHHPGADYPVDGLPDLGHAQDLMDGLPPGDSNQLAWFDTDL
# testDescription: Fluorescence polarization IC50 (beta-catenin / 5FAM-TCF4 10-53 competition)
# Assay type: binding
# recordedConditions: fluorescence polarization; read-out: beta-Catenin FP IC50
// values below are reported IC50
Express the result in nM but write the number alone.

// known answers, use as guide
{"compound": "CC(=O)N1CCC[C@]12CC=CCCCC1(CCCC=CCCCOC(=O)N3CC[C@@](C(=O)N[C@@H](Cc4cccc(C(F)(F)F)c4)C(=O)N[C@@H](Cc4csc5ccccc45)C(=O)N[C@@H](CO)C(N)=O)(C3)NC(=O)[C@H]([C@@H](C)O)NC(=O)[C@H](Cc3ccccc3)NC(=O)[C@H](C)NC(=O)[C@H](C)NC(=O)[C@H]([C@@H](C)O)NC(=O)[C@H](CC(=O)O)NC1=O)NC(=O)[C@H](CC(C)(C)C)NC(=O)[C@H](CC(=O)O)NC2=O (stereo partly drawn)", "testedSystem": "full-length beta-Catenin (Uniprot ID P35222) (Homo sapiens, UniProt P35222)", "IC50 [nM]": 682}
{"compound": "CCCC[C@@H]1NC(=O)[C@H](Cc2ccccc2)NC(=O)[C@H](C)NC(=O)[C@H](C)NC(=O)[C@H](CN(CC(=O)O)CC(F)(F)F)NC(=O)[C@H](CC(=O)O)NC(=O)C2(CCCC=CCCCOC(=O)N3CC[C@@](C(=O)N[C@@H](Cc4ccsc4)C(=O)N[C@@H](Cc4csc5ccccc45)C(=O)N[C@@H](CCC(N)=O)C(N)=O)(C3)NC1=O)CCCC=CC[C@]1(CCCN1C(C)=O)C(=O)N[C@@H](CC(=O)O)C(=O)N[C@@H](CC(C)(C)C)C(=O)N2 (stereo partly drawn)", "testedSystem": "full-length beta-Catenin (Uniprot ID P35222) (Homo sapiens, UniProt P35222)", "IC50 [nM]": 17}
{"compound": "CC(=O)N1CCC[C@]12CC=CCCCC1(CCCC=CCCCOC(=O)N3CC[C@@](C(=O)N[C@@H](Cc4ccsc4)C(=O)N[C@@H](Cc4csc5ccccc45)C(=O)N[C@@H](CCC(N)=O)C(N)=O)(C3)NC(=O)[C@H](CC(N)=O)NC(=O)[C@H](Cc3ccccc3)NC(=O)[C@H](C)NC(=O)[C@H](C)NC(=O)[C@H](CC(N)=O)NC(=O)[C@H](CO)NC1=O)NC(=O)[C@H](CC(C)(C)C)NC(=O)[C@H](CC(=O)O)NC2=O (stereo partly drawn)", "testedSystem": "full-length beta-Catenin (Uniprot ID P35222) (Homo sapiens, UniProt P35222)", "IC50 [nM]": 2600}
{"compound": "CC(=O)N1CCC[C@]12CC=CCCCC1(CCCC=CCCCOC(=O)N3CC[C@@](C(=O)N[C@@H](Cc4ccsc4)C(=O)N[C@@H](Cc4csc5ccccc45)C(=O)N[C@@H](CCC(N)=O)C(N)=O)(C3)NC(=O)[C@H](Cn3cc(CN4CCS(=O)(=O)CC4)nn3)NC(=O)[C@H](Cc3ccccc3)NC(=O)[C@H](C)NC(=O)[C@H](C)NC(=O)[C@H](CN(CC(=O)O)CC(F)(F)F)NC(=O)[C@H](CC(=O)O)NC1=O)NC(=O)[C@H](CC(C)(C)C)NC(=O)[C@H](CC(=O)O)NC2=O (stereo partly drawn) [I-1868]", "testedSystem": "full-length beta-Catenin (Uniprot ID P35222) (Homo sapiens, UniProt P35222)", "IC50 [nM]": 12}
{"compound": "CC(=O)N1CCC[C@]12CC=CCCCC1(CCCC=CCCCCCC[C@@](C)(C(=O)N[C@@H](Cc3ccccc3)C(=O)N[C@@H](Cc3csc4ccccc34)C(=O)N[C@@H](Cc3c[nH]cn3)C(N)=O)NC(=O)[C@H](CCC(N)=O)NC(=O)[C@H](Cc3ccccc3)NC(=O)[C@H](C)NC(=O)[C@H](C)NC(=O)[C@H](CN(CC(=O)O)CC(F)(F)F)NC(=O)[C@H](CC(=O)O)NC1=O)NC(=O)[C@H](C)NC(=O)[C@H](CC(=O)O)NC2=O (stereo partly drawn)", "testedSystem": "full-length beta-Catenin (Uniprot ID P35222) (Homo sapiens, UniProt P35222)", "IC50 [nM]": 123}
{"compound": "CC(=O)N1CCC[C@]12CC=CCCCC1(CCCC=CCCCOC(=O)N3CC[C@@](C(=O)N[C@@H](Cc4ccccc4C(F)(F)F)C(=O)N[C@@H](Cc4ccc(C)c(C)c4)C(=O)N[C@@H](C)C(N)=O)(C3)NC(=O)[C@H](CC(C)C)NC(=O)[C@H](Cc3ccccc3)NC(=O)[C@H](C)NC(=O)[C@H](CCC(N)=O)NC(=O)[C@H](Cc3cccc(C(=O)O)c3)NC(=O)[C@H](CC(=O)O)NC1=O)NC(=O)[C@H](CC(C)(C)C)NC(=O)[C@H](CC(=O)O)NC2=O (stereo partly drawn)", "testedSystem": "full-length beta-Catenin (Uniprot ID P35222) (Homo sapiens, UniProt P35222)", "IC50 [nM]": 16}

### Prompt Endpoint output: IC50 of CC(=O)N1CCC[C@]12CC=CCCCC1(CCCC=CCCCOC(=O)N3CC[C@@](C(=O)N[C@@H](Cc4ccsc4)C(=O)N[C@@H](Cc4csc5ccccc45)C(=O)N[C@@H](CCC(N)=O)C(N)=O)(C3)NC(=O)[C@H](CC(N)=O)NC(=O)[C@H](Cc3ccccc3)NC(=O)[C@H](C)NC(=O)[C@H](C)NC(=O)[C@H](CC(N)=O)NC(=O)[C@H](CC(N)=O)NC1=O)NC(=O)[C@H](C)NC(=O)[C@H](CC(=O)O)NC2=O (stereo partly drawn) . Value?
### Response 385

### Prompt Entry CC(=O)N1CCC[C@]12CC=CCCCC1(CCCC=CCCCCCCCC[C@@](C)(C(=O)N[C@@H](Cc3ccccc3Cl)C(=O)N[C@@H](Cc3csc4ccccc34)C(=O)N[C@H](C(N)=O)[C@@H](C)O)NC(=O)[C@H]([C@@H](C)O)NC(=O)[C@H](Cc3ccccc3)NC(=O)[C@H](C)NC(=O)[C@H](C)NC(=O)[C@H](CC(=O)O)NC(=O)[C@H](CC(=O)O)NC1=O)NC(=O)[C@H](CC(C)(C)C)NC(=O)[C@H](CC(=O)O)NC2=O (stereo partly drawn) please
### Response 1120

### Prompt Entry CCCC[C@@H]1NC(=O)[C@H](Cc2ccccc2)NC(=O)[C@H](C)NC(=O)[C@H](C)NC(=O)[C@H](Cc2cccc(C(=O)O)c2)NC(=O)[C@H](CC(=O)O)NC(=O)C2(CCCC=CCCCOC(=O)N3CC[C@@](C(=O)N[C@@H](Cc4ccsc4)C(=O)N[C@@H](Cc4csc5ccccc45)C(=O)N[C@@H](CCC(N)=O)C(N)=O)(C3)NC1=O)CCCC=CC[C@]1(CCCN1C(C)=O)C(=O)N[C@@H](CC(=O)O)C(=O)N[C@@H](CC(C)C)C(=O)N2 (stereo partly drawn) please
### Response 5
